Taken from patent US20230037815A1.

TARGET DESC: cynomolgus CD19 (cynomolgus)
ASSAY NOTES: Octet HTX (ForteBio), IgG on AHC sensor, 1:1 fit
# koff >= 0.001 s⁻¹ gives true, anything below gives false

query: Could you tell me if the measured koff of CNG-CD19-104 (antibody, V domains shown) VH: QVQLVQSGAEVKKPGASVKVSCKASGYDFTDYIVHWVRQAPGQGLEWMGYINPYNDGSKYTEKFQGRVTMTSDTSISTAYMELSRLRSDDTAVYYCARGTYYYGPELFDYWGQGTTVTVSS VL: DIVMTQTPLSLSVTPGQPASISCKSGQSLETSTGTTYLNWYLQKPGQSPQLLIYRVSRRFSGVPDRFSGSGSGTDFTLKISRVEAEDVGVYYCLQLLEDPYTFGQGTKLEIK reaches 0.001 s⁻¹ or more?
result: true

query: Textbook exercise: given the entry CNG-CD19-107 (antibody, V domains shown) VH: QVQLVQSGAEVKKPGASVKVSCKASGYDFTDYIMHWVRQAPGQGLEWMGYINPYNDGSKYTEKFQHRVTMTSDTSISTAYMELSRLRSDDTAVYYCARGTYYYGPQLFDYWGQGTTVTVSS VL: DIVMTQTPLSLSVTPGQPASISCKSSQSLETSTGTTYLNWYLQKPGQSPQLLIYRVSRRFSGVPDRFSGSGSGTDFTLKISRVEAEDVGVYYCLQLLEDPYTFGQGTKLEIK , state whether its koff is greater than or equal to 0.001 s⁻¹.
result: true

query: Is it the case that CNG-CD19-108 (antibody, V domains shown) VH: QVQLVQSGAEVKKPGASVKVSCKASGYDFTDYIVHWVRQAPGQGLEWMGYINPYNDGSKYTEKFQGRVTMTSDTSISTAYMELSRLRSDDTAVYYCARGTYYYGPQLFDYWGQGTTVTVSS VL: DIVMTQTPLSLSVTPGQPASISCKSSQSLETVTGTTYLNWYLQKPGQSPQLLIYRVSKRFSGVPDRFSGSGSGTDFTLKISRVEAEDVGVYYCLQLLEDPPTFGQGTKLEIK has koff reaching or exceeding 0.001 s⁻¹?
result: false

query: Please check the record CNG-CD19-7 (antibody, V domains shown) VH: QVQLQESGPGLVKPSQTLSLTCTVSGGSISTSGMGVGWIRQHPGKGLEWIGHIWWDDDKRYNPALKSRVTISVDTSKNQFSLKLSSVTAADTAVYYCARMELWSYYFDYWGQGTLVTVSS VL: EIVLTQSPATLSLSPGERATLSCSASSSVSYMHWYQQKPGQAPRLLIYDTSKLASGIPARFSGSGSGTDFTLTISSLEPEDFAVYYCFQGSVYPFTFGQGTKLEIK and state if its koff is at or above 0.001 s⁻¹.
result: false

query: Does CNG-CD19-102 (antibody, V domains shown) VH: QVQLVQSGAEVKKPGASVKVSCKASGYEFTDYIMHWVRQAPGQGLEWMGYINPYNDGSKYTEKFQPRVTMTSDTSISTAYMELSRLRSDDTAVYYCARGTYYYGPQLFDYWGQGTTVTVSS VL: DIVMTQTPLSLSVTPGQPASISCKSSQSLETSTGTTYLNWYLQKPGQSPQLLIYRVSKRFSGVPDRFSGSGSGTDFTLKISRVEAEDVGVYYCLQLLEDPYTFGQGTKLEIK have a reported koff of at least 0.001 s⁻¹?
result: true
